- TARGET DESC: Steroidogenic factor 1 (Homo sapiens) (UniProt Q13285)
- Sequence (Q13285 whole entry, looked up): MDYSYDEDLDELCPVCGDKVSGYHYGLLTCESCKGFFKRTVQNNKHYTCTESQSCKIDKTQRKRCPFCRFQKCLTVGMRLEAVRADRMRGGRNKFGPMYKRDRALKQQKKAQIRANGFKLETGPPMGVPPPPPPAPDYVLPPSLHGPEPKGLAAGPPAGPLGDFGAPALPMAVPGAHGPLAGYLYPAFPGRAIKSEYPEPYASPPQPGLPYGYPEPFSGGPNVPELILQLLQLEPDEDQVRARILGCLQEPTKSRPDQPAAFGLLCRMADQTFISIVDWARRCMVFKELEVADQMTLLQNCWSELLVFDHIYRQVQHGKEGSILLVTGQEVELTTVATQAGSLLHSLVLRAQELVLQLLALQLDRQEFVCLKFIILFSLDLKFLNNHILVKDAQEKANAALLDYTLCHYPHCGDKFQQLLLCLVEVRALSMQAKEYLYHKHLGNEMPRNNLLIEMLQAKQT
- ASSAY COMMENT: SF1 (NR5A1) inverse agonists, counter-screen for LRH-1 inverse agonist project, cell-based, luminescence, high throughput (AID 651614);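 note: cells cotransfected with StAR promoter reporter and SF1 expression vector; 0% = vehicle on cells with receptor and 100% = vehicle on cells lacking receptor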
- EXPERIMENTAL PARAMETERS: cell-based SF1 luciferase reporter, at 3.6 µM
Active and inactive are the calls of the source. Cut-off read from the data, not from the text of the source: active = inhibition above about 44%; inactive = the rest.
Pick from active, inactive when you respond.

What classification did `CCCc1cc(=O)oc2cc3oc(C)c(C)c3cc12` end up with in this test?
active

What call does the record list for `O=C(Nc1ccc(Cc2ccncc2)cc1)c1ccc([N+](=O)[O-])o1` ?
active

Test call for this compound, please: `CCC(=O)N1CCN(c2ccc(Cl)cc2NC(=O)c2ccc([N+](=O)[O-])o2)CC1`
active

New cases:
Dear all, I need the recorded test outcome for `Cc1cc(NC(=O)c2ccc([N+](=O)[O-])o2)ccc1NC(=O)c1ccco1` , thank you.
active

Dear all, I need the recorded test outcome for `COc1ccc(-c2oc(=O)c3cc(OC)c(OC)cc3c2C#CCCO)cc1` , thank you.
inactive

Could you check what this test reported for COc1ccc(NC(=O)C2Cc3c(-c4cccc(C(C)=O)c4)ccnc3O2)cc1OC (centres undefined) ?
active

I would be grateful if you could indicate the recorded call for `C=CCn1c(C)cc(C2=NNC(=NCC)SC2)c1C` .
active

Give the logged outcome of this assay for the following compound: `Cn1nc(-c2ccccn2)nc2c(=O)n(C)c(=O)nc1-2`
active

Tell me the assay call for `CCCn1c(C)cc(C(=O)CN2C(=O)c3ccccc3S2(=O)=O)c1C` please.
active

----------
- TARGET DESC: Nuclear receptor subfamily 5 group A member 2 (Homo sapiens)
- ASSAY COMMENT: LRH-1 (NR5A2) inverse agonists, retest, confirmation, cell-based, luminescence (AID 651613);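 note: HEK293T cells co-transfected with LRH-1 and StAR promoter luciferase reporter; 0% = vehicle wells and 100% = parental cells lacking receptor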
- EXPERIMENTAL PARAMETERS: cell-based LRH-1 luciferase reporter, inverse agonism; at 3.6 µM; active compounds read high
QUANTITY: inhibition (%)
Expressed in %, but write only the number.

Here are 4 molecules together with their reported answers.
Give me measured inhibition, please, for this molecule: `Cc1no[n+]([O-])c1COc1ccccc1/C=N/n1nnnc1N`
48.8

Annotate the molecule COc1cccc(C2c3cc4c(cc3OC(NNC(N)=O)C2C)OCO4)c1O (stereo unspecified) with its measured inhibition.
59

Give a short answer stating reported inhibition for `COc1ccc(-c2noc(CCCC(=O)O)n2)cc1` .
47.8

Give recorded inhibition. `CN(C(=O)CN1CCN(c2cc(-c3ccc(OCc4ccccc4)cc3)ncn2)CC1)c1ccccc1`
46.5

Next:
Give the reported value of inhibition for this record: `Cc1sc(NC(=S)NC(=O)CCc2ccccc2)c(C(N)=O)c1C`
35.5

Answer with reported inhibition of `COc1cccc(-c2cnc3c(NC=O)cc(-c4ccc(S(C)(=O)=O)cc4)cn23)c1`
61.5

----------
- TARGET DESC: Nuclear receptor coactivator 2 (Homo sapiens) (UniProt Q15596)
- Sequence (Q15596 whole entry, looked up): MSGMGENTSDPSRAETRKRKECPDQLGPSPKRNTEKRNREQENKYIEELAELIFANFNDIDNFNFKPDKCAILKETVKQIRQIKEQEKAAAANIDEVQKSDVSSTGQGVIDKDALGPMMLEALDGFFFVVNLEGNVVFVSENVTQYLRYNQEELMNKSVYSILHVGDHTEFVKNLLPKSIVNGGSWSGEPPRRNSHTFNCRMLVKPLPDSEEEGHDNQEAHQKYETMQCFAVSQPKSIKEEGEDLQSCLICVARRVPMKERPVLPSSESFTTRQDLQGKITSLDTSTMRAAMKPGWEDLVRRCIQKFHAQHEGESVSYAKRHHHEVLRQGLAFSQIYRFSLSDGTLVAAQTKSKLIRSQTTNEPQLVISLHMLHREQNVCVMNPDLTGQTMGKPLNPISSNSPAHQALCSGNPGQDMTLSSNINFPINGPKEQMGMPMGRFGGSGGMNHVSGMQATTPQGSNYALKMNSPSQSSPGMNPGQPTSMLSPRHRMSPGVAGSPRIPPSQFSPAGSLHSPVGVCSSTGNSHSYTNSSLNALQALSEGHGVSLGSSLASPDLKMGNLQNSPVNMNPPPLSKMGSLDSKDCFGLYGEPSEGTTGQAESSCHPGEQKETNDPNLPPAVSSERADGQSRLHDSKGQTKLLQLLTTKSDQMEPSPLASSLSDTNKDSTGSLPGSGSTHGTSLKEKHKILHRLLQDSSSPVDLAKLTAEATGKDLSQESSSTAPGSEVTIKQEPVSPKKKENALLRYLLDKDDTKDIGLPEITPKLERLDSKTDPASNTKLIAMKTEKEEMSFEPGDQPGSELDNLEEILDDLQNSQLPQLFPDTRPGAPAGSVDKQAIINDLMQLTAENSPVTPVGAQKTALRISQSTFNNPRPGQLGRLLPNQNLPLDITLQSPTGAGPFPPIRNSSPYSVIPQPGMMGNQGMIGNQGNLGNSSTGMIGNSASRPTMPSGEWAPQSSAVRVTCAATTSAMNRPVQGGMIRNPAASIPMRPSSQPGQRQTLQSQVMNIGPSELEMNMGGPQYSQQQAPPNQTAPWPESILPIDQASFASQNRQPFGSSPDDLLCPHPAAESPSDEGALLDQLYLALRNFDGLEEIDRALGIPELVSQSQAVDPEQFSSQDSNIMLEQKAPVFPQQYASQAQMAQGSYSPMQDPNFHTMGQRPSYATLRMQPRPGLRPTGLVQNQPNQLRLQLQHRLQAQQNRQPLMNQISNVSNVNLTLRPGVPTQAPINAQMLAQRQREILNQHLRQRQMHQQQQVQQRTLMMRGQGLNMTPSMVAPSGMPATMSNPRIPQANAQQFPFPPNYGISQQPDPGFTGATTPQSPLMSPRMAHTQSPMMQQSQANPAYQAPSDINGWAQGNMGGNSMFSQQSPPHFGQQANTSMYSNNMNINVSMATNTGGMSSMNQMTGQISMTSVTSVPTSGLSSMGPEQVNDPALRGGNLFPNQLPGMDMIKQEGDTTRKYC
- ASSAY COMMENT: SRC2 coactivator transcriptional activity inhibitors, confirmation, cell-based, luminescence, HEK293, triplicate (AID 652008);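 note: 0% = DMSO-treated cells and 100% = Gossypol at 36 µM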
- EXPERIMENTAL PARAMETERS: HEK293 GAL4-SRC2 luciferase reporter, at 8.9 µM, active compounds read high
Binary call on inhibition: Condition met from 80% upward, Condition not met beneath that.

Has `Cc1[nH]c(=O)c(C(=O)/C=C/c2ccccc2)c2c1CCCC2` a recorded inhibition greater than or equal to 80%?
Condition not met

Tell me whether inhibition is at least 80% here: `Cc1cc(C)c(C#N)c(Sc2nc(C)c([N+](=O)[O-])c(C)c2C#N)n1`
Condition not met

# bool: inhibition of `COc1ccc(-c2cc3nc(C)n(N)c(=O)c3s2)cc1` >= 80%
Condition met

Identify whether the reported inhibition of the following compound is 80% or greater: `Cc1nn(-c2nc3ccccc3[nH]2)c(=O)c2ccccc12`
Condition met

Textbook exercise: given the entry `CN=c1scc(-c2ccccc2F)n1/N=C/c1ccc[nH]1` , state whether its inhibition is greater than or equal to 80%.
Condition met

***
Can `CCOC(=O)C1CCN(c2ncnc3c2cnn3-c2ccc(OC)cc2)CC1` be said to have inhibition at or above 80%?
Condition not met

Is the recorded value of inhibition equal to or greater than 80% for this compound? C=C1CCC2C(C)(C)CCC[C@]2(C)[C@H]1CC1=C(O)C(=O)C(CO)=CC1=O (stereo partly specified)
Condition met

Quick check: does `O=C(O)CCSc1ncnc2sc(-c3ccccc3)cc12` have inhibition greater than or equal to 80%?
Condition met

Say whether `Nc1nc(F)nc2c1ncn2[C@@H]1O[C@H](CO)[C@@H](O)[C@H]1O` shows inhibition of 80% or more.
Condition not met

Determine whether measured inhibition meets or exceeds 80% for `CCOc1ccc(-c2c(C(=O)N/N=C/c3cccc(Br)c3)nnn2-c2nonc2N)cc1`
Condition not met

----------
- TARGET DESC: Steroidogenic factor 1 (Homo sapiens) (UniProt Q13285)
- ASSAY COMMENT: SF1 (NR5A1) inverse agonists, counter-screen for LRH-1 inverse agonist project, cell-based, luminescence, high throughput (AID 651614);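 note: cells cotransfected with StAR promoter reporter and SF1 expression vector; 0% = vehicle on cells with receptor and 100% = vehicle on cells lacking receptor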
- EXPERIMENTAL PARAMETERS: cell-based SF1 luciferase reporter, at 3.6 µM, active compounds read high
Active and inactive are the calls of the source. No stated cut-off is given here; in the data, active means inhibition above about 44%; inactive means the rest.
QUANTITY: inhibition

Example cases with answers are listed next.
Give the reported inhibition for this compound. `CN1CCN(C2=C(Cl)C(=O)N(c3ccc(Cl)c(Cl)c3)C2=O)CC1`
41.6% (inactive)

Identify measured inhibition corresponding to `COc1ccc(-c2cc3nc(-c4ccccc4)cc(N4CCN(C(C)=O)CC4)n3n2)cc1`
39.3% (inactive)

Supply recorded inhibition for `Cc1no[n+]([O-])c1COc1ccc(/C=C2\NC(=S)NC2=O)cc1` here.
45.9% (active)

Using known records, supply inhibition for `CCCc1cc(=O)oc2c(C)c(OCC(=O)NCCCn3ccnc3)ccc12`
35.9% (inactive)

Annotate the compound `COc1ccc(/C=N/NC(=O)c2cc(-c3ccc(C)cc3C)nc3ccccc23)cc1COC(C)=O` with its measured inhibition.
50.6% (active)

***
Return reported inhibition. Input compound: `CN(Cc1ccccc1)C1=CC(=[N+]2CCCCC2)CC(C)(C)C1`
90.6% (active)

----------
- TARGET DESC: Nuclear receptor coactivator 2 (Homo sapiens) (UniProt Q15596)
- ASSAY COMMENT: SRC2 coactivator transcriptional activity inhibitors, confirmation, cell-based, luminescence, HEK293, triplicate (AID 652008);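 note: 0% = DMSO-treated cells and 100% = Gossypol at 36 µM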
- EXPERIMENTAL PARAMETERS: HEK293 GAL4-SRC2 luciferase reporter, at 8.9 µM, active compounds read high
QUANTITY: inhibition (%)
Dear colleague, please return just the value in %, with no unit written.

Illustrative cases are given below, each with its answer.
Indicate the recorded inhibition value for this compound: `CN(c1ccccc1)S(=O)(=O)c1ccc(Cl)c(C(=O)Nc2ccncc2)c1`
29.7

Kindly indicate its recorded inhibition. Item: `S=C(c1ccc(-c2ccccc2)cc1)N1CCOCC1`
79.1

Hello, please tell me recorded inhibition for this one: `CSc1nnc(NC(=O)c2nc(S(=O)(=O)Cc3ccc(C)cc3)ncc2Cl)s1`
55.7

Tell me measured inhibition for `O=[N+]([O-])c1ccc(-c2ccc(S(=O)(=O)NCCN3CCCC3)cc2)cc1` please.
17.4

For `O=C(CSc1nnc(-c2cccnc2)s1)Nc1ccnc2ccccc12` , write its inhibition.
35

More entries:
For the compound `Cc1cc(=O)oc2cc(OCC(=O)NC3CCCC3)ccc12` , give its measured inhibition value.
-25.6

----------
- TARGET DESC: Steroidogenic factor 1 (Homo sapiens)
- ASSAY COMMENT: SF1 (NR5A1) inverse agonists, counter-screen for LRH-1 inverse agonist project, cell-based, luminescence, high throughput (AID 651614);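 note: cells cotransfected with StAR promoter reporter and SF1 expression vector; 0% = vehicle on cells with receptor and 100% = vehicle on cells lacking receptor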
- EXPERIMENTAL PARAMETERS: cell-based SF1 luciferase reporter, at 3.6 µM
Active and inactive are the calls of the source. No stated cut-off is given here; in the data, active means inhibition above about 44%; inactive means the rest.
Just give me one of these, please: YES = active, NO = inactive

Previously resolved entries follow.
Could you please tell me the result logged for `CCN(CC)CCC(=O)N1C/C(=C/c2ccccc2)C(=O)/C(=C\c2ccccc2)C1` in this assay?
YES

// return assay outcome for COc1ccc(C2(C)NC(=O)N(CC(=O)NCCC3=CCCCC3)C2=O)cc1OC (stereo not given)
NO

Any idea what this test logged for `Cc1ccc(C)c(NC(=O)CSc2nc3c(oc4ccccc43)c(=O)n2-c2ccccc2)c1` ?
YES

What is the recorded call for this molecule in the test? `CC[n+]1c(/C=C/c2ccc(N(C)C)cc2)ccc2ccccc21`
YES

Now look at this entry.
Could you please tell me the result logged for `O=C(CCl)N1CCN(S(=O)(=O)Cc2ccccc2)CC1` in this assay?
YES
